molecular target: ABCB1 (MDR1/P-glycoprotein) (Homo sapiens); assay: Vi-sensitive ATPase stimulation in High Five insect cell membrane vesicles; also rhodamine […]/doxorubicin accumulation in ABCB1-overexpressing cells
Sequence (P08183 whole entry): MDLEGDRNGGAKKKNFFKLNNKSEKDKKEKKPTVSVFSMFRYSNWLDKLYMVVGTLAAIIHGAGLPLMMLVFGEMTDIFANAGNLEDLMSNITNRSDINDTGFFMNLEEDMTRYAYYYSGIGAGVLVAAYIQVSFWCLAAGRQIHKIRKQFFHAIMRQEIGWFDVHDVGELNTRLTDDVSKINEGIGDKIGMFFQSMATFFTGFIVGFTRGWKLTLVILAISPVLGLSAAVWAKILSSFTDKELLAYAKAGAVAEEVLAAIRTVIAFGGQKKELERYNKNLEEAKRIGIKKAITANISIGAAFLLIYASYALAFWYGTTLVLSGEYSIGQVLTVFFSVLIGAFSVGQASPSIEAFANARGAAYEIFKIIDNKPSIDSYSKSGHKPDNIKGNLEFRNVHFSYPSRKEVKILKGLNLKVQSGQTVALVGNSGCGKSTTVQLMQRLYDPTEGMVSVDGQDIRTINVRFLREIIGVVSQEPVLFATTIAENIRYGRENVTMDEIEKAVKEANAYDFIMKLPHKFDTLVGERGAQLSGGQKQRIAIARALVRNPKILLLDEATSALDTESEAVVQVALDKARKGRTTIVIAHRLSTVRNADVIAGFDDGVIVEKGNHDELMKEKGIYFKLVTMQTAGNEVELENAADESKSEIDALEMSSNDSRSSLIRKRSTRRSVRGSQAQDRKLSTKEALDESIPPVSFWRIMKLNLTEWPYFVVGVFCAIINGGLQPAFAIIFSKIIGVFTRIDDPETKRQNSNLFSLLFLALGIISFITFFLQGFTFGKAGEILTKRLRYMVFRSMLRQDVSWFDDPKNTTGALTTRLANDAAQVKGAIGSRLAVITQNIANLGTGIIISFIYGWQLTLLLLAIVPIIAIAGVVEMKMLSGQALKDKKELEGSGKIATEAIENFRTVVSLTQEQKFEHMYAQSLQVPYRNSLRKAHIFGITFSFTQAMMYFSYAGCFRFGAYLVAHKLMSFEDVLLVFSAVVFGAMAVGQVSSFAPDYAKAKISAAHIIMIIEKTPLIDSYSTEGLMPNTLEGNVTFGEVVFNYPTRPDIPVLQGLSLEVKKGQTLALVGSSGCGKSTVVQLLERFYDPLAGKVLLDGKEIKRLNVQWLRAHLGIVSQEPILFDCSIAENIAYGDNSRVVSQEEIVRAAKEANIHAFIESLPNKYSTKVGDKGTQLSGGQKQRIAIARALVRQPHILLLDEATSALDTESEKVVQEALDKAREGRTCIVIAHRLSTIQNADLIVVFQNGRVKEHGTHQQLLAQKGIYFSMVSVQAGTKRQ
reportedEndpoint: EC50 (nM)
Quick reminder: number only, in nM, skip the unit.

For reference, reported EC50 for CC(=O)Nc1cccc(-n2c(=O)n(C3CC3)c(=O)c3c(Nc4ccc(I)cc4F)n(C)c(=O)c(C)c32)c1 [Trametinib] stands at 1020
